# System: HCT-116 colon
# Test description: NCI tumour cell line growth inhibition, 48 h
Measured endpoint: TGI

Ask | Using the record for COc1ccc(C2C(C(=O)O)=C(COC(C)=O)Oc3cc4c(cc32)OCO4)c(OC)c1 (centres undefined) , state its measured TGI.
Reply | > 100 µM

Ask | Using the record for CC1CC[C@@]2(OC1)OC1C[C@H]3[C@@H]4CC=C5C[C@@H](OC6OC(CO)C(OC7OC(CO)C(O)C(O)C7O)C(O)C6OC6OC(C)C(O)C(O)C6O)CC[C@]5(C)[C@H]4CC[C@]3(C)C1[C@@H]2C (some centres undefined) , state its measured TGI.
Reply | 2.31 µM

Ask | Using the record for C=C(CCC(=O)N(CCc1c[nH]c2ccccc12)C(=O)c1ccccc1CSCC)C(=O)OC , state its measured TGI.
Reply | > 100 µM

Ask | Using the record for C[N+](C)([O-])C12CC3CC(CC(C3)C1)C2 , state its measured TGI.
Reply | 91.2 µM

Ask | Using the record for COC(=O)[C@]1(c2cc3ccccc3[nH]2)CC2CNC1C1OC(C)(C)OC21 (some centres undefined) , state its measured TGI.
Reply | > 100 µM

Ask | Using the record for Cc1cccc(NC(=O)CSc2nnc(-c3ccc(N=Cc4ccc(Cl)cc4)cc3)o2)c1 , state its measured TGI.
Reply | > 100 µM

Ask | Using the record for O=c1[nH]c(NCCCCCO)nc2nc[nH]c12 , state its measured TGI.
Reply | > 100 µM

Ask | Using the record for CC1(O)CC23CC(O)C4(O)C(CC(O)C4(C)C)C(C)(O)C2CCC1C3O (centres undefined) , state its measured TGI.
Reply | > 100 µM

Ask | Using the record for CCOC(=O)CC1(N)CC2c3ccccc3OC(=O)C2C(=O)N1 (centres undefined) , state its measured TGI.
Reply | > 100 µM

----------
# System: HCT-116 colon
# Test description: NCI tumour cell line growth inhibition, 48 h
Each entry gets not satisfied if its TGI stays under 10 µM, and satisfied if its TGI is 10 µM or above.

Ask | I'd appreciate it if you could say whether CCOC(=O)CCC(NC(=O)c1ccc(NCc2ccc3nc(OC)c(OC)nc3c2)c2ccccc12)C(=O)OCC (configuration not stated) has TGI at least equal to 10 µM.
Reply | satisfied

Ask | I'd appreciate it if you could say whether CC1(C)N=C(N)N=C(N)N1c1ccc(CCCCCCc2ccc(S(=O)(=O)F)cc2)cc1 has TGI at least equal to 10 µM.
Reply | satisfied

Ask | I'd appreciate it if you could say whether NC(=O)C1C(=O)Oc2cccnc21 (configuration not stated) has TGI at least equal to 10 µM.
Reply | satisfied

Ask | I'd appreciate it if you could say whether COC1=C(OC)C(=O)C(Cc2c(-c3ccccc3)nc3sc(Cl)cn23)=C(C)C1=O has TGI at least equal to 10 µM.
Reply | satisfied

Ask | I'd appreciate it if you could say whether C=C(/C=C/C=C(\CO)CCC=C(C)C)[C@H]1CCC2([C@H](CCCO)/C(=C(/C)C=O)CC[C@]2(C)O)[C@H]1O (some centres not stated) has TGI at least equal to 10 µM.
Reply | satisfied

Ask | I'd appreciate it if you could say whether O=S1(=O)CS(=O)(=O)OCCCCCO1 has TGI at least equal to 10 µM.
Reply | satisfied

Ask | I'd appreciate it if you could say whether N#Cc1nc(-c2ccsc2)oc1N has TGI at least equal to 10 µM.
Reply | satisfied

Ask | I'd appreciate it if you could say whether Oc1ccccc1/C=N/c1nc(-c2ccccc2)cs1 has TGI at least equal to 10 µM.
Reply | satisfied

Ask | I'd appreciate it if you could say whether C=C(C)C1CCC2(C)C1CCC1(C)C2CCC2C3(C)C4OC(OC4=O)C(C)(C)C3CCC21C (configuration not stated) has TGI at least equal to 10 µM.
Reply | satisfied

Ask | I'd appreciate it if you could say whether CCCC/C=C1/CCC(CN(C)C)C1=O (configuration not stated) has TGI at least equal to 10 µM.
Reply | not satisfied

Ask | I'd appreciate it if you could say whether CN(Cc1ccccc1)C(=S)S has TGI at least equal to 10 µM.
Reply | satisfied

Ask | I'd appreciate it if you could say whether COc1cc(CNc2nc3c(NC(C)=O)cc(C(F)(F)F)cc3nc2-c2ccccc2)cc(OC)c1OC has TGI at least equal to 10 µM.
Reply | satisfied

Ask | I'd appreciate it if you could say whether CC1(C)O[C@@H](CCl)C[C@@H](C#N)O1 has TGI at least equal to 10 µM.
Reply | satisfied

Ask | I'd appreciate it if you could say whether Fc1cccc(C2ON=C(c3ccccc3)N2C23CC4CC(CC(C4)C2)C3)c1 (configuration not stated) has TGI at least equal to 10 µM.
Reply | satisfied

Ask | I'd appreciate it if you could say whether Cn1cc(C2=C(c3cccc([N+](=O)[O-])c3)C(=O)NC2=O)c2ccccc21 has TGI at least equal to 10 µM.
Reply | satisfied

Ask | I'd appreciate it if you could say whether CN(C)CCCNC(=O)N/N=C/c1ccccn1 has TGI at least equal to 10 µM.
Reply | satisfied

Ask | I'd appreciate it if you could say whether O=c1c2ccccc2n2nnc3ccc(NCCNCCO)c1c32 has TGI at least equal to 10 µM.
Reply | satisfied

Ask | I'd appreciate it if you could say whether CCOC(=O)NC(Nc1ccc(C(=O)O)cc1)(C(F)(F)F)C(F)(F)F has TGI at least equal to 10 µM.
Reply | satisfied

Ask | I'd appreciate it if you could say whether Cc1cc(C)c(C2=NO[C@@H]3[C@H]2C(=O)C=C2N(Cc4ccccc4)CCO[C@@]23O)c(C)c1 has TGI at least equal to 10 µM.
Reply | satisfied

Ask | I'd appreciate it if you could say whether O=[N+]([O-])/C(=C/C=C/c1ccccc1)c1ccccc1 has TGI at least equal to 10 µM.
Reply | not satisfied

Ask | I'd appreciate it if you could say whether O=C(/C=C/c1ccccn1)c1ccccc1 has TGI at least equal to 10 µM.
Reply | not satisfied

Ask | I'd appreciate it if you could say whether Clc1cc(Cl)cc(Nc2ccc3c(OCCCN4CCOCC4)cccc3n2)c1 has TGI at least equal to 10 µM.
Reply | not satisfied

----------
I'd appreciate it if you could supply TGI values for the items below.
# Tested on: KM12 colon
# Test description: NCI tumour cell line growth inhibition, 48 h

Ask | Using the record for COc1ccc([C@H]2c3[nH]c4ccccc4c3C[C@H]3C(=O)N(CCCCCCC(=O)NO)CC(=O)N23)cc1 , state its measured TGI.
Reply | > 33.3 µM

Ask | Using the record for COc1ccc(-c2nn(-c3cccc(Cl)c3)cc2-c2c(C#N)c(=O)n3[nH]c(-c4ccc(C)o4)nc3c2C#N)cc1 , state its measured TGI.
Reply | > 50 µM

Ask | Using the record for Nc1ccc2c3c1cccc3c(=O)n1c3ccc(Cc4ccc5c(c4)nc4c6ccc(N)c7cccc(c(=O)n54)c76)cc3nc21 , state its measured TGI.
Reply | > 100 µM

Ask | Using the record for O=C(CCCCCCCCC(=O)N1C(=O)CC(=O)N(c2ccc(Cl)cc2)C1=S)N1C(=O)CC(=O)N(c2ccc(Cl)cc2)C1=S , state its measured TGI.
Reply | > 100 µM

Ask | Using the record for Cc1c(C(=O)/C=C/c2ccc3c(c2)OCO3)[n+](=O)c2ccccc2n1[O-] , state its measured TGI.
Reply | 90.5 µM

Ask | Using the record for CCCCCCC1CCCCN1C(c1ccccc1)C(O)c1ccccc1 (centres undefined) , state its measured TGI.
Reply | 19.4 µM

Ask | Using the record for CCOc1ccc(Nc2nc(N)nc(N)c2N=O)cc1 , state its measured TGI.
Reply | > 100 µM

Ask | Using the record for COc1ccc(Nc2nc(N)c(C(=O)c3ccco3)s2)cc1 , state its measured TGI.
Reply | > 100 µM

Ask | Using the record for N#CC(c1cc(Cl)ncn1)c1nc2cc(C(F)(F)F)ccc2s1 (centres undefined) , state its measured TGI.
Reply | 18.7 µM

----------
I'd appreciate it if you could supply TGI values for the items below.
# System: T-47D breast
# Test description: NCI tumour cell line growth inhibition, 48 h
Just the number please, in µM, no unit attached.

Ask | Using the record for COc1cc(/C=C/C(=O)/C=C/c2ccc(-n3ccnc3)cc2)ccc1O , state its measured TGI.
Reply | 9.92

Ask | Using the record for CC(C)(C)c1cc(C(C)(C)C)c2sc(=O)oc2c1O , state its measured TGI.
Reply | 19.8

Ask | Using the record for COc1ccc([C@H]2c3[nH]c4ccccc4c3C[C@H]3C(=O)N(CCCCCCC(=O)NO)CC(=O)N23)cc1 , state its measured TGI.
Reply | 25.6

Ask | Using the record for Clc1ccc(C2=CC(c3ccccc3)N3C(=N[C@H]4CCCC[C@@H]43)N2)cc1 (some centres undefined) , state its measured TGI.
Reply | 21.6

Ask | Using the record for CC(C)NC(=O)OCCN=C1c2ccccc2C(Br)C(Br)c2ccccc21 (centres undefined) , state its measured TGI.
Reply | 18.4

All figures here come from PubChem BioAssay (NCI).
